# System: MALME-3M melanoma
# Assay: NCI tumour cell line growth inhibition, 48 h
Parameter measured: TGI (µM)
Please give a number only; it is taken to be in µM.

Cc1nnc([S-])o1.[Au+].c1ccc([PH+](c2ccccc2)c2ccccc2)cc1 :: 3.06
O=C1c2[nH]cc(CN3CCN(CCO)CC3)c2C(=O)c2c1c(O)c1ccccc1c2O :: 24.9
CS(=O)(=O)Nc1ccc(Nc2cc[nH]c3ccc4nccc4c23)cc1 :: 18.4

Read the next record carefully.
For the compound Cc1cc(I)cc(CN(C)CCN(C)C)c1O , what TGI is on record?
36.8

====

# System: SK-MEL-5 melanoma
# Assay: NCI tumour cell line growth inhibition, 48 h; in the data active = GI50 below about 0.43 µM; inactive = the rest
Please reply with one of these outcomes: t = active, f = inactive

Example entries and their recorded answers appear below.
CCSc1ccc2c(c1)N(CCCN1CCN(C)CC1)c1ccccc1S2 :: f
Cc1nnc([S-])o1.[Au+].c1ccc([PH+](c2ccccc2)c2ccccc2)cc1 :: f
CCOC(=O)c1ccc(NC(=O)Nc2nccs2)cc1 :: t

For COC(=O)c1cc2cc(-c3ccc(OC)cc3)cnc2[nH]1 , what call appears in the results of this test?
f

Please do the same for COc1cc(-c2cc(/C=C3\C(=O)Nc4ccc(Cl)cc43)[nH]n2)cc(OC)c1OC as well.
f

Please do the same for N#Cc1c(-c2ccccc2)n([O-])c2ccccc2[n+]1=O as well.
f

Please do the same for COC(=O)[C@@H]1CCCN1C(=O)[C@@H]1CCCN1C(=O)[C@H](Cc1ccccc1)NC(=S)Nc1cc(C(F)(F)F)cc(C(F)(F)F)c1 as well.
f

====

# Test system: IGROV1 ovarian
# Assay: NCI tumour cell line growth inhibition, 48 h; in the data active = GI50 below about 0.43 µM; inactive = the rest
Please reply with one of these outcomes: active, inactive

Example entries and their recorded answers appear below.
c1cc(N2CCN(c3ccc(C4=NCCN4)cc3)CC2)ccc1C1=NCCN1 :: inactive
Cc1ccc2c(NCCCN(C)C)c3c(C)nn(C)c3nc2c1 :: inactive

For COc1ccc(/C=N/Nc2nc(N)nc(N3CCCC3)c2C#N)cc1 , what call appears in the results of this test?
inactive

Please do the same for CN(C)c1ccc(O)c2c1CC1CC3C(N(C)C)C(=O)C(C(N)=O)=C(O)C3(O)C(=O)C1=C2O (centres undefined) as well.
inactive

Please do the same for COC(=O)[C@@H]1CCCN1C(=O)[C@@H]1CCCN1C(=O)[C@H](Cc1ccccc1)NC(=S)Nc1cc(C(F)(F)F)cc(C(F)(F)F)c1 as well.
inactive

Please do the same for CCCCCCCCCCCCCCCCNC(=O)OC(C)C as well.
inactive

Please do the same for C=C1C(=O)O[C@H]2[C@H]1CC/C(COC(=O)NCc1ccc(Cn3c(=O)sn(CCI)c3=O)cc1)=C\CC[C@@]1(C)O[C@@H]21 as well.
inactive

====

Each entry below carries its reported TGI.
# System: SR leukemia
# Assay: NCI tumour cell line growth inhibition, 48 h
Where a SMILES comes first, the peptide text is derived from it. [ ]: non-standard residue; d: D form. Ac5c = NC1(C(=O)O)CCCC1

C=C(C)[C@@H]1C/C=C(\COC(=O)[C@H](OC(C)=O)C(NC(=O)c2ccccc2)c2ccccc2)CC[C@H]2O[C@]2(C)CC/C=C(\C)CC1 (stereo not given in full) :: > 50 µM
CCN(CC)c1ncnc2c1ncn2CCNC(CO)(CO)CO :: > 100 µM
CNc1ccc(S(=O)Nc2ccc(OC)cc2)cc1 (stereo not given) :: > 100 µM
NCC(=O)NC1(C(=O)O)CCCC1 (H-Gly-[Ac5c]-OH) :: > 100 µM
Cc1ccc2c(=O)cc(-c3cccc(Cl)c3)[nH]c2n1 :: > 100 µM
CCCCCCCCCCCCC/C=C/[C@H]1[C@@H](C(=O)OC)N1S(=O)c1ccc(C)cc1 (stereo not given in full) :: > 100 µM

For the compound COc1cc([C@@H]2c3cc4c(cc3[C@@H](NC(=O)c3cccc(N)c3)C3COC(=O)[C@@H]32)OCO4)cc(OC)c1O (stereo not given in full) , what TGI is on record?
0.321 µM

Please do the same for CC1CN=C(N(C)C(=O)Nc2ccc(Cl)cc2)S1 (stereo not given) as well.
92.2 µM

Please do the same for Cn1cnc([N+](=O)[O-])c1Sc1nc2ncccc2[nH]1 as well.
> 100 µM

====

Each entry below carries its reported TGI.
# Tested on: SF-295 CNS
# Assay: NCI tumour cell line growth inhibition, 48 h
Please give a number only; it is taken to be in µM.

See these solved cases before continuing.
CCSc1ccc2c(c1)N(CCCN1CCN(C)CC1)c1ccccc1S2 :: 5.97
Cc1ccc2c(NCCCN(C)C)c3c(C)nn(C)c3nc2c1 :: 28.4
CCOC(=O)c1ccc(NC(=O)Nc2nccs2)cc1 :: 15.5

For the compound Cc1ccc(Nc2nc3c(s2)C(=O)c2ccccc2C3=O)cc1 , what TGI is on record?
2.99

====

# System: HCT-15 colon
# Assay: NCI tumour cell line growth inhibition, 48 h
Each entry below carries its reported TGI.
Please give a number only; it is taken to be in µM.

For the molecule COc1cc([C@@H]2c3cc4c(cc3[C@@H](NC(=O)c3cccc(N)c3)C3COC(=O)[C@@H]32)OCO4)cc(OC)c1O (stereo partly specified) , what TGI is on record?
19.7

Please do the same for O=[N+]([O-])c1cccc2nc3ccccc3c(NCCO)c12 as well.
0.00425

Please do the same for C=C1C(=O)O[C@H]2[C@H]1CC/C(COC(=O)NCc1[nH]nc3ccccc13)=C\CC[C@@]1(C)O[C@@H]21 as well.
2.64

====

Each entry below carries its reported TGI.
# System: NCI-H226 lung
# Assay: NCI tumour cell line growth inhibition, 48 h

See these solved cases before continuing.
COc1cc(OC)c(C#N)c(OC)c1C :: > 100 µM
COc1cccc(-n2ncc3c(N/N=C/c4ccc(F)cc4)ncnc32)c1 :: > 25 µM
Cc1cccc(NC(=S)Nc2ccc(Cl)cc2)n1 :: > 100 µM
Nc1nc2cc(-c3ccc4ncc(C(=O)N5CCOCC5)n4c3)ccc2o1 :: > 100 µM

Read the next record carefully.
For the compound Cn1cc(C2=C(c3cn(C)c4cc(C(=O)O)ccc34)C(=O)NC2=O)c2ccccc21 , what TGI is on record?
> 25 µM

====

# Test system: LOX IMVI melanoma
# Assay: NCI tumour cell line growth inhibition, 48 h
Parameter measured: TGI

See these solved cases before continuing.
CC1CN=C(N(C)C(=O)Nc2ccc(Cl)cc2)S1 (configuration not stated) :: > 100 µM
CS(=O)(=O)Nc1ccc(Nc2cc[nH]c3ccc4nccc4c23)cc1 :: 34.2 µM
Cc1ccc2c(=O)cc(-c3cccc(Cl)c3)[nH]c2n1 :: > 100 µM
N#Cc1nc(-c2cccnc2)oc1N :: > 100 µM
CN1CCN(C(=S)N(C(=O)c2cccs2)c2ccccc2)CC1 :: > 100 µM
O=C(Nc1cccc(-n2cc(-c3ccncc3)c(-c3ccc(Cl)c(O)c3)n2)c1)Nc1cccc(C(F)(F)F)c1 :: 9.58 µM
CC(C)(Oc1ccc(C(=O)c2ccc(Cl)cc2)cc1Cl)C(=O)Nc1c(Cl)cccc1Cl :: > 100 µM
CNCCCNc1c2cc(OC)ccc2nc2cccc([N+](=O)[O-])c12 :: 0.354 µM
CN=C(NC#N)N(Cc1ccccc1)Cc1ccccc1 :: > 100 µM
C[Si]1(C)C(c2ccccc2)=CC2C(c3ccccc3)(c3ccccc3)OC21c1ccccc1 (configuration not stated) :: > 100 µM

For the compound CC(=O)OCC1OC(NC(=S)CCSc2nc3ccccc3c(=O)n2-c2ccccc2)C(OC(C)=O)C(OC(C)=O)C1OC(C)=O (configuration not stated) , what TGI is on record?
> 100 µM

Please do the same for N#CCCN(CCNc1ccccc1)C(=O)Nc1ccc(NC(=O)N(CCC#N)CCNc2ccccc2)cc1 as well.
> 100 µM

====

# System: SK-MEL-28 melanoma
# Assay: NCI tumour cell line growth inhibition, 48 h; in the data active means GI50 below about 0.43 µM; inactive means the rest
Please reply with one of these outcomes: yes (1) for active, no (0) for inactive

Example entries and their recorded answers appear below.
O=[N+]([O-])c1cccc2nc3ccccc3c(NCCO)c12 :: yes (1)
CCCCC/C=C/C(=O)CCc1ccc(O)c(OC)c1 :: no (0)
CSc1nn2c(-c3ccc4ccccc4c3)ccnc2c1C#N :: no (0)

For CN1CCN(Cc2ccc(NC(=O)c3nc4ccc5[nH]ncc5c4c4c3CCCC4)cc2C(F)(F)F)CC1 , what call appears in the results of this test?
no (0)

Please do the same for Cc1nn(-c2ccccc2)c(-n2ccnc2)c1/C=N/Nc1nc(-c2ccc(Cl)c(Cl)c2)cs1 as well.
no (0)

Please do the same for Oc1ccc(/C=C/c2ccc(O)cc2)cc1 as well.
no (0)

Please do the same for COc1ccc(-c2cc3c(OC)c(OC)c(OC)cc3oc2=O)cc1 as well.
no (0)

Please do the same for CCC(/C=C(C)/C=C/C(=O)c1c(O)c(-c2ccc(O)cc2)c[nH]c1=O)CO (centres undefined) as well.
no (0)

Please do the same for Cc1cc(I)cc(CN(C)CCN(C)C)c1O as well.
no (0)
